The measured values listed here are drawn from patent US20090286808A1.

target: P23H opsin (Bos taurus, UniProt P02699, P23H); construct: expressed in transfected cells; assay: Yield of folded P23H rhodopsin purified from P23H opsin expressing HEK293 cells, by spectrophotometry; type: cell-based, bovine
Mark t for reported % Increase in P23H Yield (Table 2) of 30% or greater; mark f for anything smaller.

smiles	cat
Cc1cc([N+](=O)[O-])ccn1	f
N#Cc1ccc2c(c1)OCO2	f
Cn1cc(C(N)=O)ccc1=N	t
O=[PH](O)c1ccccc1	t
Oc1ccccc1C=Nn1cnnc1	f
N#Cc1cn(Cc2ccco2)c(=O)[nH]c1=O	t
CC(C)N(CC#N)C(C)C	f

* * *

molecular target: P23H opsin (Bos taurus, UniProt P02699, P23H); construct: expressed in transfected cells; experiment: Yield of folded P23H rhodopsin purified from P23H opsin expressing HEK293 cells, by spectrophotometry; format: cell-based, bovine

compound	% Increase in P23H Yield (Table 2), %
Nn1nnc2ccccc21	30
CC(=O)c1c(C)n[nH]c1C	30
O=C1NC(CCO)C(=O)NC1CCO (stereo not drawn)	30
